# system: T1, human DLL3 on cells (human, UniProt Q9NYJ7 27-618)
# T1 construct: Endogenous on H1184 and SHP77; Cell line is named under assay; also called H1184; DLL3/H82
# T1 sequence: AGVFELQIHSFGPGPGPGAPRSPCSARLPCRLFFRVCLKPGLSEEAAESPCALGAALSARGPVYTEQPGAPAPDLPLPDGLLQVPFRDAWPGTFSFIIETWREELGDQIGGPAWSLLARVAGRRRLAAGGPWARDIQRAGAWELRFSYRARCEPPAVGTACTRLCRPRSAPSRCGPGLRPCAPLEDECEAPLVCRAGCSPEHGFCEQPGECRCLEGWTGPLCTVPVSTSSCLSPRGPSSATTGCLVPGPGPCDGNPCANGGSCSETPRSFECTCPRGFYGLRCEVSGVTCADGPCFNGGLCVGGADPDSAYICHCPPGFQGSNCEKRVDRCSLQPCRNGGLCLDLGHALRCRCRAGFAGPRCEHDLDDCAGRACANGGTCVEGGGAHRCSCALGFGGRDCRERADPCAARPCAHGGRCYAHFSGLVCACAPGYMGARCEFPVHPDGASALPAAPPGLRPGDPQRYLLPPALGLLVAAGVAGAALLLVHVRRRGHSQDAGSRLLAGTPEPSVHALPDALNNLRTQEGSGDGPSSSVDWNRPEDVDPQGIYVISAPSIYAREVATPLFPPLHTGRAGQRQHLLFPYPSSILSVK
# test.name: flow cytometry, DLL3/H82 cells
# Parameters: key: geometric mean fluorescence intensity (flow cytometry)
Listed below: Emax values for each entry.
Please reply with the number alone, leaving off any unit.

[[record]]
binder = "hu30L2H5 (antibody, human IgG1, kappa, V domains shown) VH: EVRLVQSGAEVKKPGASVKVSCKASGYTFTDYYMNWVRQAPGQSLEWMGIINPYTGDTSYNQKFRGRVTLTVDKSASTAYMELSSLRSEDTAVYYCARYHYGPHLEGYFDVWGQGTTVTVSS VL: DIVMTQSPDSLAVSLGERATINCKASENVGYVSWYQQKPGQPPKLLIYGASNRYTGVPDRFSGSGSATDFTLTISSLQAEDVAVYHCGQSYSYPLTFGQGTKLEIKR"
assay_readout = "Emax"
assay_result = 5570


Kindly note the recorded Emax for hu30L1H6 (antibody, human IgG1, kappa, V domains shown) VH: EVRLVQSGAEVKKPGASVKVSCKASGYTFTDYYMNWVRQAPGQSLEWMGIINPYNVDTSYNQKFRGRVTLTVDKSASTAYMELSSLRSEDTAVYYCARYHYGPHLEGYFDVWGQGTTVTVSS VL: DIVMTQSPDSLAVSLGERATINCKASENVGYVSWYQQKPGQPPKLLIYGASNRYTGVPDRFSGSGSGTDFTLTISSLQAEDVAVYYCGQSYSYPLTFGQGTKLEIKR , which is 5750
